- TARGET_SYSTEM: T1, nuclear cap-binding complex (CBC: CBP80ΔNLS + CBP20), human (human, UniProt Q09161 20-790; P52298 1-156)
- T1 sequence 1: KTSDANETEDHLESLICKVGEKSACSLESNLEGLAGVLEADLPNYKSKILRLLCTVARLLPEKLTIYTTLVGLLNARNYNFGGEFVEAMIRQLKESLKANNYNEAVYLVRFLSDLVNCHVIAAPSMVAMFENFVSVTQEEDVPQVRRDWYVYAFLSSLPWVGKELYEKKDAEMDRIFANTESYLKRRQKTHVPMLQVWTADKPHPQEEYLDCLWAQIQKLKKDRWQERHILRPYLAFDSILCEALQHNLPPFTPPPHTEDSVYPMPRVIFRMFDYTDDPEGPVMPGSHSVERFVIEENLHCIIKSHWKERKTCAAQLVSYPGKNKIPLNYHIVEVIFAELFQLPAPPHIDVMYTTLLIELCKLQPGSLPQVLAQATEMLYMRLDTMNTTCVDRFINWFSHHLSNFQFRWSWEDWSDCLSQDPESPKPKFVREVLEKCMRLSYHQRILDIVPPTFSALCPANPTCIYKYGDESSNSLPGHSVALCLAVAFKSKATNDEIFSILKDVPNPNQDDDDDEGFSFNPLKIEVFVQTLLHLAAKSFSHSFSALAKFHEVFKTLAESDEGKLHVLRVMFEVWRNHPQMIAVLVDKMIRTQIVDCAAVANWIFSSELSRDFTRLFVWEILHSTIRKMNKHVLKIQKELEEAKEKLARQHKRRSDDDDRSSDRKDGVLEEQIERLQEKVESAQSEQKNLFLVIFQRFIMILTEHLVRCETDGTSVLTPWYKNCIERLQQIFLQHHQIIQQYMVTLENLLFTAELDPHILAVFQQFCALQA
- T1 sequence 2: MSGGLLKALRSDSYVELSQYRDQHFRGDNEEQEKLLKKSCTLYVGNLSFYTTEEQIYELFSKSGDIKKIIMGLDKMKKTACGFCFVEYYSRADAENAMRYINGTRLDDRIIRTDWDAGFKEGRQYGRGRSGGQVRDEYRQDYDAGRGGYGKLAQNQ
- METHOD_DESCRIPTION: ITC

[
  {
    "BINDER": "NELF-E^244-380 (W345E) (domain or fragment, human, UniProt P18615 244-380, looked up) GPFRRSDSFPERRAPRKGNTLYVYGEDMTPTLLRGAFSPFGNIIDLSMDPPRNCAFVTYEKMESADQAVAELNGTQVESVQLKVNIARKQPMLDAATGKSVEGSLAVQNSPKGCHRDKRTQIVYSDDVYKENLVDGF",
    "Kd": "1300 nM"
  },
  {
    "BINDER": "TKKVDHRAPGAEEDDSELQRAWGALIKEKEQSRQKKSR (domain or fragment, human, UniProt Q53F19 560-597, looked up) [NCBP3^560-620 with C-terminal residues 598-620 removed]",
    "Kd": "222 nM"
  },
  {
    "BINDER": "TKKVDHRAPGAEEDDSELQRAWGALIKEKEQ (domain or fragment, human, UniProt Q53F19 560-590, looked up) [NCBP3^560-620 truncated to residue 590]",
    "Kd": "6000 nM"
  },
  {
    "BINDER": "NELF-E^244-380 (domain or fragment, human, UniProt P18615 244-380, looked up) GPFRRSDSFPERRAPRKGNTLYVYGEDMTPTLLRGAFSPFGNIIDLSMDPPRNCAFVTYEKMESADQAVAELNGTQVESVQLKVNIARKQPMLDAATGKSVWGSLAVQNSPKGCHRDKRTQIVYSDDVYKENLVDGF",
    "Kd": "113 nM"
  }
]
